Tgt: MDM2 (synMDM2) 25-109 (Homo sapiens), Q00987
Sequence (Q00987 25-109): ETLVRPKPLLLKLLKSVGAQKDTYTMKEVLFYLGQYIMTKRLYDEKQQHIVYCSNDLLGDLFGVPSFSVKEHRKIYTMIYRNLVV
Test protocol: SPR direct
Cond: modification not given
Measurement type: Kd (nM)
# value in nM; strip the unit string

Lookup: Which Kd is listed for CYSFDCLWKCLAMGFRRGKCRRRKCKC [stoppin-2] ?
Found: 493
